Give z-score for every item shown.
test: Components of the Cytosolic LPS Sensing Pathway: Gene Identification via Genome-wide siRNA Screen; conditions: RAW264.7 macrophages, IL-1a HTRF, actives lie on both sides, screened at 100 nM (by protocol), cells primed 5 h with Pam3CSK4 first;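 note: robust z of the log signal after scaling to non-targeting control siRNA wells of the plate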
The campaign covered roughly 53,000 sequences. About 3,700 (7%) were called active. This is one part of a sample in which actives are shown more often than they occur.
One number for each entry.

// known answers, use as guide
[[record]]
construct_sequence = "GGCCGAUGCCAAAUUGGUATT against Olfm1"
metric_name = "z-score"
quantitative_readout = 0.0323

[[record]]
construct_sequence = "CCUCUUAAAACAAUACCAATT against Olr1"
metric_name = "z-score"
quantitative_readout = 1.37

[[record]]
construct_sequence = "GGUGAUACCAUCACUUUGATT against Mark2"
metric_name = "z-score"
quantitative_readout = 0.173

[[record]]
construct_sequence = "GGACAUUAAGAGUGGAAAGTT against Nucb1"
metric_name = "z-score"
quantitative_readout = 0.777

[[record]]
construct_sequence = "GCGAUAUUAACUAUGGAGATT against Gpr149"
metric_name = "z-score"
quantitative_readout = -0.601

[[record]]
construct_sequence = "GCUCAUUCGUCCUCACAGUTT against Olfr312"
metric_name = "z-score"
quantitative_readout = -1.11

[[record]]
construct_sequence = "GCCUCACUUUGCCAUGCAUTT against Pou4f1"
metric_name = "z-score"
quantitative_readout = -1.78


The reported z-score of the sequence GGGAAAAACUCUGUGUGUATT against Coasy was -0.25

###

assay: Components of the Cytosolic LPS Sensing Pathway: Gene Identification via Genome-wide siRNA Screen; conditions: RAW264.7 macrophages, IL-1a HTRF, actives lie on both sides, screened at 100 nM (by protocol), cells primed 5 h with Pam3CSK4 first;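 note: robust z of the log signal after scaling to non-targeting control siRNA wells of the plate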
About 3,700 (7%) of roughly 53,000 sequences were called active. The full list was thinned out, with actives kept by preference.
Threshold-based label: z-score under 0.3 gives T, z-score not under 0.3 gives F.

[[record]]
construct_sequence = "CGAGAAAAUGGAUUCUACCTT against Atp10d"
assigned_category = "F"

[[record]]
construct_sequence = "GGGCUUUGAUCAGUUCUACTT against Hoxd11"
assigned_category = "F"

[[record]]
construct_sequence = "GGCUUUGAUCAGCAUGAGCTT against Pak4"
assigned_category = "T"

[[record]]
construct_sequence = "GGCCUGCUUUGUUCUGAAUTT against Olfr846"
assigned_category = "T"

[[record]]
construct_sequence = "GCUAUAGGGACCUCUGUCATT against Cdh5"
assigned_category = "T"


input: I'd appreciate it if you could check whether GCCGGUGACUUUCUAAUUUTT against Yrdc has z-score smaller than 0.3.
output: T

input: I'd appreciate it if you could check whether GCAGAUGACUAUCGGAAGUTT against Usp53 has z-score smaller than 0.3.
output: F

input: I'd appreciate it if you could check whether GGUCUCAAAGAAAUCUGUATT against Bcap29 has z-score smaller than 0.3.
output: T

input: I'd appreciate it if you could check whether CCGUGGAAACAGUCCUGAATT against Nudcd1 has z-score smaller than 0.3.
output: F

input: I'd appreciate it if you could check whether GCUGGCUUCAUUUUACUUATT against Degs1 has z-score smaller than 0.3.
output: T

input: I'd appreciate it if you could check whether CCAACCUCCCAUUCUGAAUTT against Ttc22 has z-score smaller than 0.3.
output: F
